// reported pKd for each item listed
target under test: T1, human CD40 extracellular domain with C-terminal His-AviTag (human, UniProt P25942 21-193)
T1 construct: not shown: C-terminal His-AviTag
T1 sequence (P25942 21-193): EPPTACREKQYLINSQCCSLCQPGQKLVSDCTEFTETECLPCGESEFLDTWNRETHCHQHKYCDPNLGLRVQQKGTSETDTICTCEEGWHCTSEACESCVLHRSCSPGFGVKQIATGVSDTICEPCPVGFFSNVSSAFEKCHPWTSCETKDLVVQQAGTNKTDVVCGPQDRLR
assay summary: SPR, antibody captured, CD40 ECD analyte;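 also: biacore SPR at 25 °C in PBS-T pH 7.4, CD40 ECD analyte from 300 nM in 1:3 series, 300 s association, up to 1200 s dissociation, double-referenced, Langmuir 1:1 fit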
API: returns pKd as number; meaning -log10 of concentration in mol/L.

The cases that follow already have their pKd on record.
binder	reading
P1AE0404, humanized anti-CD40 antibody VH2a/VL2b, huIgG1_LALA_PG (antibody, V domains shown, huIgG1 with effector silent Fc (P329G, L234A, L235A); also called VL2b/VH2a) VH: EVQLLESGGGLVQPGGSLRLSCAASGYSFTGYYIHWVRQAPGKGLEWVGRVIPNAGGTSYNQKFKGRFTISVDNSKNTAYLQMNSLRAEDTAVYYCAREGIYWWGQGTTVTVSS VL: DIQMTQSPSSLSASVGDRVTITCRSSQSLVHSNGNTFLHWYQQKPGQSPKLLIYTVSNRFSGVPSRFSGSGSGTDFTLTISSLQPEDFATYFCSQTTHVPWTFGGGTKVEIK	8.38
P1AE0997, humanized anti-CD40 antibody VH1c/VL1a, huIgG1_LALA_PG (antibody, V domains shown, huIgG1 with effector silent Fc (P329G, L234A, L235A)) VH: QVQLVQSGAEVKKPGASVKVSCKASGYSFTGYYIHWVRQAPGQSLEWMGRVIPNAGGTSYNQKFKGRVTLTVDKSISTAYMELSRLRSDDTAVYYCAREGIYWWGHGTTVTVSS VL: DIVMTQTPLSLSVTPGQPASISCRSSQSLVHSNGNTFLHWYLQKPGQSPQLLIYTVSNRFSGVPDRFSGSGSGTDFTLKISRVEAEDVGVYFCSQTTHVPWTFGGGTKVEIK	8.64

Here's the next entry for you.
Exam item: Using the record for P1AE0818, humanized anti-CD40 antibody VH1c/VL1c, huIgG1_LALA_PG (antibody, V domains shown, huIgG1 with effector silent Fc (P329G, L234A, L235A)) VH: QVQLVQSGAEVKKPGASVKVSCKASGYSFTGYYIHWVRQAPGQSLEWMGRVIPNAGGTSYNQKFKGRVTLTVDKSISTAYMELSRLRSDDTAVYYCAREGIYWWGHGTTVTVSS VL: DVVVTQTPLSLSVTPGQPASISCRSSQSLVHSNGNTFLHWYLQKPGQSPQLLIYTVSNRFSGVPDRFSGSGSGTDFTLKISRVEAEDVGVYFCSQTTHVPWTFGGGTKVEIK , report its pKd.
Marked response: 8.49
